run_conditions: 309.15 K; 101.33 kPa; Liquid
mass density: recorded values
Express the result in kg/m3 but write the number alone.

1. COCCOC    849.13
2. CCOCCOCCOCC    891.25
3. COCCOCCOC    927.82

Now examine the next entry.
For the compound ClCCCl , give its reported mass density.
1229.47

---

run_conditions: 307.15 K; 101.33 kPa; Liquid
mass density: recorded values
Express the result in kg/m3 but write the number alone.

For the compound COCCOCCOC , give its reported mass density.
929.83

For the compound ClCCCl , give its reported mass density.
1232.42

For the compound COCCOC , give its reported mass density.
851.35

For the compound CCOCCOCCOCC , give its reported mass density.
893.18
